assay text: in vitro
recorded conditions: human
readout kind: IC50

Prompt: Which IC50 reading was recorded for the compound CC1=C(CCC(=O)Oc2ccc3c(c2)CCC2C3CC[C@]3(C)C(=O)CCC23)C2=C(C)C3(CC3)[C@@](C)(O)C(=O)C2=C1 (some centres unmarked) [Analog 110] ?
Completion: > 19 µM

Consider now this further compound.
Prompt: Which IC50 reading was recorded for the compound CC1=C(CCC(=O)Oc2ccc3c(c2)CCC2C3CC[C@]3(C)C(O)CCC23)C2=C(C)C3(CC3)[C@@](C)(O)C(=O)C2=C1 (some centres unmarked) [Analog 108] ?
Completion: > 55 µM

---

# IC50 values compiled below
Tested on: 8392B Nontarget Cell Line (hematopoietic)
recorded conditions: read-out: Mean IC50 value, 48 hr exposure, ± SD, N = 3 unless otherwise indicated
*1 amine or outer side, *2 acyl side, *3 side chain or, on linkers, in order; H or OH if unused. Where a SMILES comes first, the peptide text is derived from it. The star is where a group is joined. X2 = CC1=C(CCCN*)C2=C(C)C3(CC3)[C@@](C)(O)C(=O)C2=C1; Morpholide = C1CN(*)CCO1; CO = O=C([*:1])[*:2]

Example compounds with recorded IC50:
Prompt: Which IC50 reading was recorded for the compound CC(=O)ON(C(C)=O)c1ccc(C(=O)OC[C@]2(C)C=C3C(=O)[C@](C)(O)C4(CC4)C(C)=C3C2OC(=O)c2ccc(N(OC(C)=O)C(C)=O)cc2)cc1 (stereo partly drawn) [Analog 140] ?
Completion: > 14 µM

Prompt: Which IC50 reading was recorded for the compound CC1=CC2=C(C)C3(CC3)C(C)(O)C(=NO)C2=C1 (stereo not drawn) [Analog 224] ?
Completion: > 130 µM

Prompt: Which IC50 reading was recorded for the compound CC1=C2C(O)C(C)(C)C3CC23C(=O)C(C)(O)C12CC2 (stereo not drawn) [Analog 252] ?
Completion: > 380 µM

Prompt: Which IC50 reading was recorded for the compound CCCCCCCC/C=C/CCCCCCCC(=O)OCC1=C(C)C=C2C(=O)[C@](C)(O)C3(CC3)C(C)=C21 [Analog 226] ?
Completion: > 59 µM

Prompt: Which IC50 reading was recorded for the compound CC1=C2C(=CC(C)(CO[Si](C)(C)C(C)(C)C)C2OC(=O)c2ccc(S(=O)(=O)F)cc2)C(=O)C(C)(O)C12CC2 (stereo not drawn) [Analog 219] ?
Completion: > 52 µM

Consider now this further compound.
Prompt: Which IC50 reading was recorded for the compound CC1=C(CCCNC(=O)[C@H](CC(C)C)NC(=O)[C@H](CCC(N)=O)NC(=O)[C@H](CC(C)C)NC(=O)[C@H](CCCCN)NC(=O)[C@H](CO)NC(=O)[C@H](CO)NC(=O)[C@H](Cc2c[nH]cn2)NC(=O)N2CCOCC2)C2=C(C)C3(CC3)[C@@](C)(O)C(=O)C2=C1 [Analog 221] ({Morpholide-CO}-HSSKLQL-X2) ?
Completion: > 21 µM

---

Tested on: NCI 60 cell line panel
assay text: NCI DTP 60 cell line screen assay
recorded conditions: NCI DTP 60 cell line, mean
Description: An ADC is engulfed by a tumor cell, transported to the endosomes (pH<6.0) and then into the lysozomes (pH<4). […] 4). Cancer cells can become resistant to various toxins and drugs through the development of what is termed multi-drug resistance. This process is known to occur through several different mechanisms.
# Mean LD50 cytotoxic values compiled below

Example compounds with recorded Mean LD50 cytotoxic:
Prompt: Which Mean LD50 cytotoxic reading was recorded for the compound CC[C@H](C)[C@@H]([C@@H](CC(=O)N1CCC[C@H]1[C@H](OC)[C@@H](C)C(=O)N[C@@H](Cc1ccccc1)c1nccs1)OC)N(C)C(=O)[C@@H](NC(=O)[C@H](C(C)C)N(C)C)C(C)C ?
Completion: >50,000 nM

Prompt: Which Mean LD50 cytotoxic reading was recorded for the compound CO[C@@H]1[C@H](O)CC[C@]2(CO2)[C@H]1[C@@]1(C)O[C@@H]1CC=C(C)C ?
Completion: >50,000 nM

Prompt: Which Mean LD50 cytotoxic reading was recorded for the compound C=C1C[C@H]2C=Nc3cc(OCCCOc4cc5c(cc4OC)C(=O)N4CC(=C)C[C@H]4C=N5)c(OC)cc3C(=O)N2C1 [Pyrrolo-benzodiazepines] ?
Completion: >23,000 nM

Consider now this further compound.
Prompt: Which Mean LD50 cytotoxic reading was recorded for the compound COc1cc2cc(c1Cl)N(C)C(=O)C[C@H](OC(=O)[C@H](C)N(C)C(C)=O)[C@]1(C)O[C@H]1[C@H](C)[C@@H]1C[C@@](O)(NC(=O)O1)[C@H](OC)/C=C/C=C(\C)C2 ?
Completion: 49,200 nM

---

Test system: NCI 60 cell line panel
assay text: NCI DTP 60 cell line screen assay
recorded conditions: NCI 60 cell line screen; negative = lyse tumor cells, zero = no growth, positive = slower growth
Where a SMILES comes first, the peptide text is derived from it. [ ]: non-standard residue; d: D form. The star is where a group is joined. Dolaproine = CO[C@@H]([C@@H]1CCCN1)[C@@H](C)C(=O)O; Dil = CC[C@H](C)[C@H](NC)[C@@H](CC(=O)O)OC; X1 = C[C@@H](N*)[C@@H](O)c1ccccc1; NMeV = CN[C@H](C(=O)O)C(C)C
readout kind: Activity Value

Example compounds with recorded Activity Value:
Prompt: Which Activity Value reading was recorded for the compound CC1=C(CNO)C2=C(C)C3(CC3)[C@@](C)(O)C(=O)C2=C1 ?
Completion: −2

Prompt: Which Activity Value reading was recorded for the compound CC[C@H](C)[C@@H]([C@@H](CC(=O)N1CCC[C@H]1[C@H](OC)[C@@H](C)C(=O)N[C@H](C)[C@@H](O)c1ccccc1)OC)N(C)C(=O)[C@@H](NC(=O)[C@@H](NC)C(C)C)C(C)C [MMAE, monomethyl auristatin E] (H-[NMeV]V[Dil][Dolaproine]-X1) ?
Completion: +21

Prompt: Which Activity Value reading was recorded for the compound COc1cc2cc(c1Cl)N(C)C(=O)C[C@H](OC(=O)[C@H](C)N(C)C(=O)CCS)[C@]1(C)O[C@H]1[C@H](C)[C@@H]1C[C@@](O)(NC(=O)O1)[C@H](OC)/C=C/C=C(\C)C2 ?
Completion: +8

---
Prompt: Which Activity Value reading was recorded for the compound C/C(=C\c1csc(C)n1)[C@@H]1C[C@@H]2O[C@@H]2CCC[C@H](C)[C@H](O)[C@@H](C)C(=O)C(C)(C)[C@@H](O)CC(=O)O1 ?
Completion: +31
